// data source = patent US20250179049A1

Test: in vivo
Parameters: species or system beagle dogs
Conditions: both sexes, beagle, dog, 150 mg/kg
Counter-ions that a name gives are not always drawn.
quantity measured: Human equivalent dose of NOAEL at 28 days
Note to self: number, then unit, no commentary.

Please give the measured Human equivalent dose of NOAEL at 28 days for this compound: CC(C)(OCc1cc(-c2cccc(OC3CCC3)c2)n(-c2ccccc2N2CCC2)n1)C(=O)O [Compound 1 tris salt]
81 mg/kg

----------
Assay: Rat pharmacokinetics, oral gavage
Format: in vivo, Sprague-Dawley rats
Details: male, Sprague-Dawley, rat, plasma, po, 200 mg/kg, rat PO 200 mg/kg, male, mean; read-out: Cmax
Experimental: Groups, Dosing, and Collection. […] Appropriate serial concentrations of working solutions were achieved by diluting stock solution of analyte with 50% acetonitrile in water solution. […] 2 μL of the supernatant was injected into the LC/MS/MS system for quantitative analysis. […]
quantity measured: Cmax (µg/mL)
API: value field is a number in µg/mL; no unit string.

Please give the measured Cmax for this compound: "CC(C)(OCc1cc(-c2cccc(OC3CCC3)c2)n(-c2ccccc2N2CCC2)n1)C(=O)O"
115

----------
Assay: Rat pharmacokinetics, oral gavage
Assay type: in vivo, Sprague-Dawley rats
Conditions: male, Sprague-Dawley, rat, plasma, po, 20 mg/kg, rat PO 20 mg/kg, male, mean; read-out: Tmax
quantity measured: Tmax (h)
API: value field is a number in h; no unit string.

Please give the measured Tmax for this molecule: "CC(C)(OCc1cc(-c2cccc(OC3CCC3)c2)n(-c2ccccc2N2CCC2)n1)C(=O)O"
1

----------
Test: Rat pharmacokinetics, oral gavage
Assay type: in vivo, Sprague-Dawley rats
Settings: Sprague-Dawley, plasma; rat PO 200 mg/kg, female, mean
quantity measured: half-life (h)
API: value field is a number in h; no unit string.

Please give the measured half-life for this compound: "CC(C)(OCc1cc(-c2cccc(OC3CCC3)c2)n(-c2ccccc2N2CCC2)n1)C(=O)O"
10.4

----------
Assay: Rat pharmacokinetics, oral gavage
Type: in vivo, Sprague-Dawley rats
Settings: male, Sprague-Dawley, rat, plasma, po, 60 mg/kg, rat PO 60 mg/kg, male, mean; read-out: Cmax
quantity measured: Cmax (µg/mL)
API: value field is a number in µg/mL; no unit string.

Please give the measured Cmax for this compound: "CC(C)(OCc1cc(-c2cccc(OC3CCC3)c2)n(-c2ccccc2N2CCC2)n1)C(=O)O"
56.5

----------
Experiment: Rat pharmacokinetics, oral gavage
Assay type: in vivo, Sprague-Dawley rats
Conditions: female, Sprague-Dawley, rat, plasma, po, 25 mg/kg, rat PO 25 mg/kg, female, mean; read-out: AUClast
Counter-ions that a name gives are not always drawn.
quantity measured: AUC(0-t)
Note to self: number, then unit, no commentary.

Please give the measured AUC(0-t) for this compound: CC(C)(OCc1cc(-c2cccc(OC3CCC3)c2)n(-c2ccccc2N2CCC2)n1)C(=O)O [Compound 1 tris salt]
947 µg·h/mL

----------
Experiment: Rat pharmacokinetics, oral gavage
Type: in vivo, Sprague-Dawley rats
Settings: male, Sprague-Dawley, rat, plasma, po, 75 mg/kg, rat, Male, PO/75 mg/kg, Mean ± SD; read-out: AUC0-24
Where a name gives a salt, the structure may show the parent alone.
quantity measured: AUC(0-t) (µg·h/mL)
API: value field is a number in µg·h/mL; no unit string.

Please give the measured AUC(0-t) for this compound: CC(C)(OCc1cc(-c2cccc(OC3CCC3)c2)n(-c2ccccc2N2CCC2)n1)C(=O)O [Compound 1 tris salt]
906
